Origin of measurements: ChEMBL document CHEMBL3217666

# testProtocol: Induction of hydrogen peroxide generation at 100 uM after 30 mins by xylenol orange staining-based spectrophotometry in presence of GSH and oxygen
# Type: physicochemical
# assaySetup: 0.5 h
metricName: Activity (µM)

Known Activity results, listed for orientation:
• COc1cccc(C23OC2C(=O)c2ccccc2C3=O)c1 (centres undefined) = 1.46
• COc1ccc(C23OC2C(=O)c2ccccc2C3=O)cc1 (centres undefined) = 1.4
• CC12OC1C(=O)c1c(OCc3ccccc3)cccc1C2=O (centres undefined) = 1.58
• CC12OC1C(=O)c1c(O)cccc1C2=O (centres undefined) = 1.6
• CC12OC1C(=O)c1ccccc1C2=O (centres undefined) = 1.52
• O=C1c2cccc(OCc3ccc(C(F)(F)F)cc3)c2C(=O)C2OC12 (centres undefined) = 1.68

I. O=C1c2ccccc2C(=O)C2OC12 (centres undefined)
II. O=C1c2ccccc2C(=O)C2(c3ccccc3)OC12 (centres undefined)
III. O=C1c2ccc([N+](=O)[O-])cc2C(=O)C2OC12 (centres undefined)
Sort the molecules on Activity; start with the lowest figure. Please list the labels according to the requested order.
II, I, III
(II: 1.44 µM, I: 4.4 µM, III: 8.34 µM)

1. Cc1ccc(C23OC2C(=O)c2ccccc2C3=O)cc1 (centres undefined)
2. O=C1c2cccc([N+](=O)[O-])c2C(=O)C2OC12 (centres undefined)
Problem: Given the entries 1 and 2 , determine which has the lower reported Activity. Write down the label attached to your selection.
1
(1: 1.48 µM, 2: 5.2 µM)

1. COc1ccccc1C12OC1C(=O)c1ccccc1C2=O (centres undefined)
2. O=C1c2cccc(O)c2C(=O)C2OC12 (centres undefined)
From the items above, decide which of 1 and 2 has the lower Activity reading. API: response body contains the label of the selected item.
1
(1: 1.28 µM, 2: 5.64 µM)

====

# testProtocol: Induction of hydrogen peroxide generation at 100 uM after 30 mins by xylenol orange staining-based spectrophotometry in presence of GSH and oxygen
# Format: physicochemical
# assaySetup: 0.5 h
metricName: Activity (µM)

• CCOc1cccc2c1C(=O)C1OC1C2=O (stereo unspecified) = 1.68
• Nc1cccc2c1C(=O)C1OC1C2=O (stereo unspecified) = 1.68
• O=C1c2cccc(OCc3ccccc3)c2C(=O)C2OC12 (stereo unspecified) = 1.6
• O=C1c2ccccc2C(=O)C2(c3cccc([N+](=O)[O-])c3)OC12 (stereo unspecified) = 1.4
• O=C1c2ccccc2C(=O)C2(c3ccc(F)cc3)OC12 (stereo unspecified) = 1.36
• CC(=O)c1ccc(C23OC2C(=O)c2ccccc2C3=O)cc1 (stereo unspecified) = 1.36
